System Under Test: HER2 (human epidermal growth factor receptor-2) (Homo sapiens, UniProt P04626)
Construct: begins at amino acid 676 followed by the remainder of the HER2 cytoplasmic domain; polyhistidine (N)
Sequence (P04626 676-1255 limits assumed): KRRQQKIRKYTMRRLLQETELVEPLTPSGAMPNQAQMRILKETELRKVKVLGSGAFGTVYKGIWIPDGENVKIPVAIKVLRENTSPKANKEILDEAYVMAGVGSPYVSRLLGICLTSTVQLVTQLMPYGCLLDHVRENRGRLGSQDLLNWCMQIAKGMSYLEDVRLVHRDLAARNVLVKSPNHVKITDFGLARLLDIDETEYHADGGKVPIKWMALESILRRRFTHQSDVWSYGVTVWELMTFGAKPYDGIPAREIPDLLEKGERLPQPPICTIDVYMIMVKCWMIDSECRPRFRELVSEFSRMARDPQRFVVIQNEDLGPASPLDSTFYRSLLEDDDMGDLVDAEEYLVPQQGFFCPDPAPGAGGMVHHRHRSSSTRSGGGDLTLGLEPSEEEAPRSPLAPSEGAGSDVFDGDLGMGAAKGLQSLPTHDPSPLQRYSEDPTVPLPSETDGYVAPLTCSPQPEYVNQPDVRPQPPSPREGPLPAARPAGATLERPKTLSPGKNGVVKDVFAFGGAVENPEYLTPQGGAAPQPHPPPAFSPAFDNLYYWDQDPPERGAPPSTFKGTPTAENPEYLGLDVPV
Protocol: Kinase Selectivity Assay HER2
Assay type: biochemical
Assay Conditions: Table 1; read-out: HER2 IC50
Experimental Readout: pIC50
Give bare numbers, as −log10 of the molar value.

INSERT INTO results (compound_string, experimental_readout, readout_number) VALUES
  ('Nc1nc(Nc2ccc(-n3cncn3)cc2)nn1C(=O)c1c(F)cccc1F', 'pIC50', 5.85);

For each listed entry, give its pIC50.
1. CNS(=O)(=O)c1ccc(Nc2nc(N)n(C(=O)c3sc(C)cc3C)n2)cc1
2. CN(C)CCNS(=O)(=O)c1ccc(Nc2nc(N)n(C(=O)c3c(F)cccc3F)n2)cc1
3. CN1CCN(c2ccc(Nc3nc(N)n(C(=O)c4c(F)cccc4F)n3)cc2)CC1
4. Cc1cccc(C)c1C(=O)n1nc(Nc2ccc(S(N)(=O)=O)cc2)nc1N
5. Cc1ccsc1C(=O)n1nc(Nc2ccc(N3CCNC3=O)cc2)nc1N
6. Nc1nc(Nc2ccc(S(N)(=O)=O)cc2)nn1C(=O)Nc1c(F)cccc1F
7. Nc1nc(Nc2ccc(S(=O)(=O)O)cc2)nn1C(=O)c1c(F)cccc1F

Output:
1. 7.89
2. 4.43
3. 5.89
4. 5.38
5. 7.17
6. 7.28
7. 5.11

Input: Request - read-out pIC50 | tested on HER2 (human epidermal growth factor receptor-2) (Homo sapiens, UniProt P04626) | compound CCc1ccc(C(=O)n2nc(Nc3ccc(S(=O)(=O)NCCN(C)C)cc3)nc2N)s1
Output: 6.64

---

System Under Test: Glycogen Synthase Kinase-3 (beta isoform) (Oryctolagus cuniculus)
Construct: purchased New England Biolabs 6040; host or cells: E. coli
Sequence (G1T8E2 1-432): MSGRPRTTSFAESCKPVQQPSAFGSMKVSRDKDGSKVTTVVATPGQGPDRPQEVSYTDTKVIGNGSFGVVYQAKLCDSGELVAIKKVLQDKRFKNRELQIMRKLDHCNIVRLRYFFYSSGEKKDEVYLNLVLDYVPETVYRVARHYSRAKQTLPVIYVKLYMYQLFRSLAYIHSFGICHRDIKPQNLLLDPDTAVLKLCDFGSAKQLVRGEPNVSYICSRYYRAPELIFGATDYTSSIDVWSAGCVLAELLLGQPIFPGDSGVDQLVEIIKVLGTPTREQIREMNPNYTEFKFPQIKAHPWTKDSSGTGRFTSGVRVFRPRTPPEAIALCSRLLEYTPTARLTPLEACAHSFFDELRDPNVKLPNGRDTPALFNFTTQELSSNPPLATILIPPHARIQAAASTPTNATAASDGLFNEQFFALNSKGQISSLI
Protocol: Kinase Selectivity Assay Glycogen Synthase Kinase-3
Type: biochemical, rabbit
Assay Conditions: Kinase Selectivity, Tables 2a-2k; read-out: GSK-3 IC50
Experimental: Assays to test compound inhibition of other kinases were preformed using methods that measure the amount of phosphorylation of a biotinylated peptide substrate. Biotinylated peptide substrates were selected from the literature as appropriate for the enzyme being evaluated. […] The plate was read on a scintillation counter to determine ^33P-γ-ATP incorporated into the immobilized peptide. […] A maximum and minimum signal for the assay was determined on each plate. […]
Experimental Readout: IC50 (nM)
Numbers only, in nM.

INSERT INTO assay_data (molecule, experimental_readout, readout_number) VALUES
  ('Cc1ccsc1C(=O)n1nc(Nc2ccc(S(N)(=O)=O)cc2)nc1N [Cpd 15]', 'IC50', 1.8),
  ('Nc1nc(Nc2ccccc2)nn1C(=O)c1ccccc1 [Cpd 62]', 'IC50', 73),
  ('CN1CCN(c2ccc(Nc3nc(N)n(C(=O)c4c(F)cccc4F)n3)cc2)CC1 [Cpd 71]', 'IC50', 1720);

Then there is this molecule:
Input: Return reported IC50; argument: Nc1nc(Nc2ccc(S(N)(=O)=O)cc2)nn1C(=O)c1c(F)cccc1Cl [Cpd 70]
Output: 220

---

System Under Test: VEGF-R (vascular endothelial growth factor receptor-2) (Rattus norvegicus)
Construct: polyhistidine (6xHIS) (N)
Sequence (O08775 786-1343): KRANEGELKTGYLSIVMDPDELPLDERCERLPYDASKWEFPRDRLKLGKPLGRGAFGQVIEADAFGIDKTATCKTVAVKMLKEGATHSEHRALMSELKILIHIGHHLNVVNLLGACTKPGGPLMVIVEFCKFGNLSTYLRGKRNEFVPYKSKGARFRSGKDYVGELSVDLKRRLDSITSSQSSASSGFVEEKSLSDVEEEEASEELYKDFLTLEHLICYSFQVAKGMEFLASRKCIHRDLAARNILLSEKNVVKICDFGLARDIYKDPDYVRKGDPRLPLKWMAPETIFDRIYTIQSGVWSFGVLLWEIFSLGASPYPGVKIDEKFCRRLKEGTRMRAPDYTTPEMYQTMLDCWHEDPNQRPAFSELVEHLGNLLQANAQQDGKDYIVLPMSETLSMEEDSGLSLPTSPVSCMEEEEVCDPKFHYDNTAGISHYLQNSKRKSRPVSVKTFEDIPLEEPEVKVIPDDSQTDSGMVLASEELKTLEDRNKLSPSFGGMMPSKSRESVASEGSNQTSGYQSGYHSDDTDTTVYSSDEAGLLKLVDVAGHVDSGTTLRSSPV
Protocol: VEGF-R Screening Assay
Assay type: biochemical
Assay Conditions: Table 1; read-out: VEGF-R IC50
Kindly supply the reported pIC50 values for the records listed here.
Answers are plain numbers, as −log10 of the molar value.

INSERT INTO assay_data (compound, system_under_test, readout_number) VALUES
  ('Nc1nc(Nc2ccc(S(N)(=O)=O)cc2)n(C(=S)Nc2c(F)cccc2F)n1', 'VEGF-R (vascular endothelial growth factor receptor-2) (Rattus norvegicus)', 6.93),
  ('Cc1cc(C)c(C(=O)n2nc(Nc3ccc(S(=O)(=O)Nc4ccccn4)cc3)nc2N)s1', 'VEGF-R (vascular endothelial growth factor receptor-2) (Rattus norvegicus)', 7.09),
  ('Cc1ccc(C(=O)n2nc(Nc3ccc(S(N)(=O)=O)cc3)nc2N)s1', 'VEGF-R (vascular endothelial growth factor receptor-2) (Rattus norvegicus)', 7.51);

For each listed entry, give its pIC50.
1. CNS(=O)(=O)c1ccc(Nc2nc(N)n(C(=O)c3c(F)cccc3F)n2)cc1
2. Nc1nc(Nc2ccc(S(N)(=O)=O)cc2)nn1C(=O)Cc1c(F)cccc1F
3. Cc1ccsc1C(=O)n1nc(Nc2ccc(-n3cncn3)cc2)nc1N
4. CN1CCN(c2ccc(Nc3nc(N)n(C(=O)c4c(F)cccc4F)n3)cc2)CC1
5. CC1CCC(C(=O)n2nc(Nc3ccc(S(N)(=O)=O)cc3)nc2N)CC1 (stereo not drawn)

Output:
[6.03, 6.20, 7.01, 6.37, 6.34]

Cited source for all entries: patent US6924302B2
